# METHOD: Cytotoxicity against human HuH7 cells assessed as release of lactate dehydrogenase
# Format: cell-based, Huh-7
# COND: human, HuH7 cells
# reported IC90; entries follow
PROPERTY NAME: IC90

smiles_str=C/C=C/C[C@@H](C)[C@@H](O)[C@H]1C(=O)N[C@@H](CC)C(=O)N(C)CC(=O)N(C)[C@@H](CC(C)C)C(=O)N[C@@H](C(C)C)C(=O)N(C)[C@@H](CC(C)C)C(=O)N[C@@H](C)C(=O)N[C@H](CN(CC)CC)C(=O)N(C)[C@@H](CC(C)C)C(=O)N(C)[C@@H](CC(C)C)C(=O)N(C)[C@@H](C(C)C)C(=O)N1C reported="> 10 µM"
smiles_str=C/C=C/C[C@@H](C)[C@@H](O)[C@H]1C(=O)N[C@@H](CC)C(=O)N(C)CC(=O)N(C)[C@@H](CC(C)C)C(=O)N[C@@H](C(C)C)C(=O)N(C)[C@@H](CC(C)C)C(=O)N[C@@H](C)C(=O)N[C@H](CCCCNC(=O)C(C)(C)C)C(=O)N(C)[C@@H](CC(C)C)C(=O)N(C)[C@@H](CC(C)C)C(=O)N(C)[C@@H](C(C)C)C(=O)N1C reported="> 10 µM"
smiles_str=C/C=C/C[C@@H](C)[C@@H](O)[C@H]1C(=O)N[C@@H](CC)C(=O)N(C)CC(=O)N(C)[C@@H](CC(C)C)C(=O)N[C@@H](C(C)C)C(=O)N(C)[C@@H](CC(C)C)C(=O)N[C@@H](C)C(=O)N[C@H](CCNC(=O)C(C)(C)C)C(=O)N(C)[C@@H](CC(C)C)C(=O)N(C)[C@@H](CC(C)C)C(=O)N(C)[C@@H](C(C)C)C(=O)N1C reported="> 10 µM"
smiles_str=C/C=C/C[C@@H](C)[C@@H](O)[C@H]1C(=O)N[C@@H](CC)C(=O)N(C)CC(=O)N(C)[C@@H](CC(C)C)C(=O)N[C@@H](C(C)C)C(=O)N(C)[C@@H](CC(C)C)C(=O)N[C@@H](C)C(=O)N[C@H](CCCCN(C)C)C(=O)N(C)[C@@H](CC(C)C)C(=O)N(C)[C@@H](CC(C)C)C(=O)N(C)[C@@H](C(C)C)C(=O)N1C reported="> 10 µM"
smiles_str=C/C=C/C[C@@H](C)[C@@H](O)[C@H]1C(=O)N[C@@H](CC)C(=O)N(C)CC(=O)N(C)[C@@H](CC(C)C)C(=O)N[C@@H](C(C)C)C(=O)N(C)[C@@H](CC(C)C)C(=O)N[C@@H](C)C(=O)N[C@H](CCN(CC)CC)C(=O)N(C)[C@@H](CC(C)C)C(=O)N(C)[C@@H](CC(C)C)C(=O)N(C)[C@@H](C(C)C)C(=O)N1C reported="8.62 µM"
smiles_str=C/C=C/C[C@@H](C)[C@@H](O)[C@H]1C(=O)N[C@@H](CC)C(=O)N(C)CC(=O)N(C)[C@@H](CC(C)C)C(=O)N[C@@H](C(C)C)C(=O)N(C)[C@@H](CC(C)C)C(=O)N[C@@H](C)C(=O)N[C@H](CN)C(=O)N(C)[C@@H](CC(C)C)C(=O)N(C)[C@@H](CC(C)C)C(=O)N(C)[C@@H](C(C)C)C(=O)N1C reported="> 10 µM"
